Each recorded value in this set is attributed to patent US9801889B2.

Measured FGFR2/FGFR4 of individual entries
Biological target: FGFR2 (Homo sapiens (Human), UniProt P21802)
Sequence (P21802 22-821): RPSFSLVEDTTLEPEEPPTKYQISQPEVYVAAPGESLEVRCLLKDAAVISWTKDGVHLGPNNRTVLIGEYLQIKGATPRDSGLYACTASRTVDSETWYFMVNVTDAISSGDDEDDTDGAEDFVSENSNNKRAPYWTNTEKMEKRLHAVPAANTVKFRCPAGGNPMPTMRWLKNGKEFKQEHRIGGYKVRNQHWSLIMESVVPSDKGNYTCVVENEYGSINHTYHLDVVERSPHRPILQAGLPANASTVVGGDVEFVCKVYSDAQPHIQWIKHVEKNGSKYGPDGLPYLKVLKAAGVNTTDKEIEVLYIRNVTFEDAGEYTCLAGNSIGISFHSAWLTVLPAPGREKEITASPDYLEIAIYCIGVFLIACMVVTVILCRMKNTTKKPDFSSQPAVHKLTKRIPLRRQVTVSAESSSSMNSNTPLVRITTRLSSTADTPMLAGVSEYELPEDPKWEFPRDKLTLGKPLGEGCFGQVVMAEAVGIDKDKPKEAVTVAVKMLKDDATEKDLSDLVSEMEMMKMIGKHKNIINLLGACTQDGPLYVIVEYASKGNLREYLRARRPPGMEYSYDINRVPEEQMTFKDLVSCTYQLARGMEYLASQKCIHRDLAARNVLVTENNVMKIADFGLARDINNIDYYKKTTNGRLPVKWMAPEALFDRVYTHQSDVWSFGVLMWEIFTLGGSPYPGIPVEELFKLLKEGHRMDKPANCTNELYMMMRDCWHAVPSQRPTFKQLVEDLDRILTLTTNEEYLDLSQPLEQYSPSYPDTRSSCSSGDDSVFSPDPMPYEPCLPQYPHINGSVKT
Test: FGFR Enzymatic Assay (FRET peptide phosphorylation), FGFR2
Conditions: IC50 ratio showing FGFR4 selectivity; pre-incubated for 4 hours

Consider the following illustrative entries.
SMILES_TEXT | MEASURED_VALUE
C=CC(=O)Nc1cnn(CC2CCOCC2)c1-c1cc2c(cn1)CN(c1c(F)c(OC)cc(OC)c1F)C(=O)C21CC1 | >100
C=CC(=O)Nc1cc(-c2cc3c(cn2)CN(c2c(F)c(OC)cc(OC)c2F)C(=O)C32CC2)ccc1CN1CCOCC1 | >25
C=CC(=O)Nc1cn(CCN2CCOCC2)nc1-c1cc2c(cn1)CN(c1c(F)c(OC)cc(OC)c1F)C(=O)C21CC1 | >100

What value of measured FGFR2/FGFR4 is listed for C=CC(=O)Nc1cnn(Cc2ccon2)c1-c1cc2c(cn1)CN(c1c(F)c(OC)cc(OC)c1F)C(=O)C21CC1 ?
>100

What value of measured FGFR2/FGFR4 is listed for C=CC(=O)Nc1cnn(C[C@@H]2CCOC2)c1-c1cc2c(cn1)CN(c1c(F)c(OC)cc(OC)c1F)C(=O)C21CC1 ?
>100

What value of measured FGFR2/FGFR4 is listed for C=CC(=O)Nc1ccc(C#N)c(-c2cc3c(cn2)CN(c2c(F)c(OC)cc(OC)c2F)C(=O)C32CC2)c1 ?
>100

---

Target: FGFR2 (Homo sapiens (Human))
Experiment: FGFR Enzymatic Assay (FRET peptide phosphorylation), FGFR2
Conditions: IC50 ratio showing FGFR4 selectivity; pre-incubated for 4 hours
ASSAY_ENDPOINT: FGFR2/FGFR4

SMILES_TEXT | FGFR2/FGFR4
C=CC(=O)Nc1cc(-c2cc3c(cn2)CN(c2c(F)c(OC)cc(OC)c2F)C(=O)C32CC2)c(C)cc1F | >100
C=CC(=O)Nc1cnn(C2CCOCC2)c1-c1cc2c(cn1)CN(c1c(F)c(OC)cc(OC)c1F)C(=O)C21CC1 | >50
C=CC(=O)Nc1cnn(CCN2CCOCC2)c1-c1cc2c(cn1)CN(c1c(F)c(OC)cc(OC)c1F)C(=O)C21CC1 | >100
C=CC(=O)Nc1cnn(CC(=O)NC)c1-c1cc2c(cn1)CN(c1c(F)c(OC)cc(OC)c1F)C(=O)C21CC1 | >100
C=CC(=O)Nc1cnn(Cc2ccnn2C)c1-c1cc2c(cn1)CN(c1c(F)c(OC)cc(OC)c1F)C(=O)C21CC1 | >50
C=CC(=O)Nc1cnn(CCO)c1-c1cc2c(cn1)CN(c1c(F)c(OC)cc(OC)c1F)C(=O)C21CC1 | >100

Consider the additional molecule presented here.
What value of measured FGFR2/FGFR4 is listed for C=CC(=O)Nc1cc(-c2cc3c(cn2)CN(c2c(F)c(OC)cc(OC)c2F)C(=O)C32CC2)cc(N2CCOCC2)c1 ?
>100

---

Molecular target: FGFR1 (Homo sapiens (Human), UniProt P11362)
Sequence (P11362 22-822): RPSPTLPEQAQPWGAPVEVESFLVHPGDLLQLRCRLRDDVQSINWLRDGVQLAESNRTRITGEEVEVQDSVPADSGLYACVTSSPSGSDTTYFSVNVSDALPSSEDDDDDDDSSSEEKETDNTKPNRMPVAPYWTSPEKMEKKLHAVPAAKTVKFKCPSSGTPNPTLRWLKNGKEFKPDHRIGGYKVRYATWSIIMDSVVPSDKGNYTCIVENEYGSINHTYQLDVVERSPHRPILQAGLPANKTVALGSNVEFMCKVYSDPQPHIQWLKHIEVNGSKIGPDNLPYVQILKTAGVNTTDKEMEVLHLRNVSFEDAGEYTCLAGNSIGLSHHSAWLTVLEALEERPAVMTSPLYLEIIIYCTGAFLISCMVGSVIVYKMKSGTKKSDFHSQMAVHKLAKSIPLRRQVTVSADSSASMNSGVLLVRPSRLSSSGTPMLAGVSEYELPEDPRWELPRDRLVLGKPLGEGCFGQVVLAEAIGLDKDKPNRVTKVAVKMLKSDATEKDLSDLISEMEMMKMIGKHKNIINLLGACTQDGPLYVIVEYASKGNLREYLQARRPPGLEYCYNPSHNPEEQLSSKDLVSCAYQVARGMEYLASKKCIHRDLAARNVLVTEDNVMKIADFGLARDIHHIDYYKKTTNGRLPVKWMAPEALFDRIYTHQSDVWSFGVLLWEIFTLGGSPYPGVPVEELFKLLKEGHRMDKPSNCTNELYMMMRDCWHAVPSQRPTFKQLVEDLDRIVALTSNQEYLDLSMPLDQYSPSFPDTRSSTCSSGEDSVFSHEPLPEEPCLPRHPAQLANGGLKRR
Assay: FGFR Enzymatic Assay (FRET peptide phosphorylation), FGFR1
Settings: IC50 ratio showing FGFR4 selectivity; pre-incubated for 4 hours
ASSAY_ENDPOINT: FGFR1/FGFR4

Consider the following illustrative entries.
SMILES_TEXT | FGFR1/FGFR4
C=CC(=O)Nc1cnn(C2CCOCC2)c1-c1cc2c(cn1)CN(c1c(F)c(OC)cc(OC)c1F)C(=O)C21CC1 | >100
C=CC(=O)Nc1cn(CCOC(F)(F)F)nc1-c1cc2c(cn1)CN(c1c(F)c(OC)cc(OC)c1F)C(=O)C21CC1 | >100

Consider the additional compound presented here.
Notebook: pull reported FGFR1/FGFR4 for FGFR1 (Homo sapiens (Human), UniProt P11362), entry C=CC(=O)Nc1cc(-c2cc3c(cn2)CN(c2c(F)c(OC)cc(OC)c2F)C(=O)C32CC2)c(C)cc1F
>100

---

Biological target: FGFR4 (Homo sapiens (Human), UniProt P22455)
Sequence (P22455 22-802): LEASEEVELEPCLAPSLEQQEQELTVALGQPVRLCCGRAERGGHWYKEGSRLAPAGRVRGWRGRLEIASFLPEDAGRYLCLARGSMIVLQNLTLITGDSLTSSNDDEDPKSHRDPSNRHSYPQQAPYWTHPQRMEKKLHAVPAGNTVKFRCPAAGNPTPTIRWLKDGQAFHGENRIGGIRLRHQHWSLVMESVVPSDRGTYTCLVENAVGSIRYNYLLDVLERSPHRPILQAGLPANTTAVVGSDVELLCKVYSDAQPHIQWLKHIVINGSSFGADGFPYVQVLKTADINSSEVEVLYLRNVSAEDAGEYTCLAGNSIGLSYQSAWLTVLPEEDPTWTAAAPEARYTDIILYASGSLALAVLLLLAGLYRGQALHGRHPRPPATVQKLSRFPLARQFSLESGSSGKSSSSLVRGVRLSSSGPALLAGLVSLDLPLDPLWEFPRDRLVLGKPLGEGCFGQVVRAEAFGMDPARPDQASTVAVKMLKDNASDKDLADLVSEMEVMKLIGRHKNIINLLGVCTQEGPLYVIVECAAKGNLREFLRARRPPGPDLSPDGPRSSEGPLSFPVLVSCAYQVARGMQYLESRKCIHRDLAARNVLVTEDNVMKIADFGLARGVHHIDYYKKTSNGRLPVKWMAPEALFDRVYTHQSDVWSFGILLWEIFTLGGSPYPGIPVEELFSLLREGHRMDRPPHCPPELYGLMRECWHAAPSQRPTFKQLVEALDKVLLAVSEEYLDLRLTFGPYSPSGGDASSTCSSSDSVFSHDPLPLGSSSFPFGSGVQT
pIC50: −log10 of the molar value.
ASSAY_ENDPOINT: pIC50

Notebook: pull reported pIC50 for FGFR4 (Homo sapiens (Human), UniProt P22455), entry C=CC(=O)Nc1cnn(CC(=O)NC)c1-c1cc2c(cn1)CN(c1c(F)c(OC)cc(OC)c1F)C(=O)C21CC1
7.52 to 8.00
